Cited source: ChEMBL document CHEMBL1629506

Tested on: T47D
assay-comment: Growth inhibition of human T47D cells after 48 hrs by sulforhodamine B assay
Assay type: functional
GI50 strictly under 20 µM means MET; at 20 µM or over means NOT MET.

smiles: N#Cc1c(C(=O)c2cn(-c3ccccc3)nc2-c2ccccc2)nn(-c2ccccc2)c1-c1ccccc1
answer-label: NOT MET

smiles: N#Cc1c(C(=O)c2cn(-c3ccc(Cl)cc3)nc2C(=O)Nc2ccccc2)nn(-c2ccccc2)c1-c1ccccc1
answer-label: NOT MET

smiles: N#Cc1c(-c2nnc(-c3nn(-c4ccccc4)c(-c4ccccc4)c3C#N)c3nn(-c4ccc(Cl)cc4)cc23)nn(-c2ccccc2)c1-c1ccccc1
answer-label: MET

smiles: CC(=O)c1nn(-c2ccccc2)cc1C(=O)c1nn(-c2ccccc2)c(-c2ccccc2)c1C#N
answer-label: NOT MET

smiles: N#Cc1ccc(C(c2ccc(C#N)cc2)n2cncn2)cc1
answer-label: MET

smiles: N#Cc1c(-c2nnc(-c3ccccc3)c3cn(-c4ccccc4)nc23)nn(-c2ccccc2)c1-c1ccccc1
answer-label: NOT MET

smiles: N#Cc1c(-c2nnc(O)c3nn(-c4ccccc4)cc23)nn(-c2ccccc2)c1-c1ccccc1
answer-label: MET

smiles: Cc1ccc(-n2cc(C(=O)c3nn(-c4ccccc4)c(-c4ccccc4)c3C#N)c(C(=O)c3nn(-c4ccccc4)c(-c4ccccc4)c3C#N)n2)cc1
answer-label: NOT MET
